RECORDED METRIC: melting point

Use these answered entries as a reference point.
[
  {
    "MOLECULE": "O=C(O)c1cn(-c2ccc(F)cc2)c2cc(-c3ccncc3)ccc2c1=O",
    "melting point": "280 to 281 °C"
  },
  {
    "MOLECULE": "CNC(=O)c1c(NC(=O)CBr)c(OC)c(C(=O)NC)c(NC(=O)CBr)c1OC",
    "melting point": "308 to 310 °C"
  },
  {
    "MOLECULE": "COc1ccc(C(=O)[C@H]2CC=CC[C@H]2C(=O)O)cc1Br (relative stereo)",
    "melting point": "201 to 204 °C"
  },
  {
    "MOLECULE": "COc1ccc(CCN2CCc3cc(OCc4ccccc4)c(OC)cc3C2)cc1",
    "melting point": "88 to 89 °C"
  },
  {
    "MOLECULE": "Cn1nc(C(=O)NCc2ccc(Cl)cc2)c(=O)c2cc(I)cnc21",
    "melting point": "207 to 208 °C"
  }
]

Ask: Reported melting point, molecule CC1CCN(C)c2nc(O)ccc21 (configuration not stated) : ____
Result: 134 to 135 °C

Ask: Looking for the measured melting point of CC12CCC1C(=O)OC2=O (configuration not stated) , can you help?
Result: 59 to 60 °C

Ask: What melting point value was documented for this molecule, `O=C(OCCO)c1nc(Cl)c(Cl)[nH]1` ?
Result: 170 °C

Ask: Which melting point value belongs to `O=[N+]([O-])c1oc2ccc(-c3ccc(CCO)cc3)cc2c1-c1ccccc1` ?
Result: 86 to 87 °C

Ask: // query melting point value for entry `CNC(=O)c1nc2ccc3c(c2c(-c2ccc4c(c2)OCO4)c1C)OCO3`
Result: 141 to 146 °C

###

RECORDED METRIC: melting point

Example entries begin here.
[
  {
    "COMPOUND": "Cc1ccc(S(=O)(=O)N2CCNC2=Nc2ccccc2)cc1",
    "MEASUREMENT": "174 to 177 °C"
  },
  {
    "COMPOUND": "CSC(C(=O)O)c1ccsc1 (stereo not given)",
    "MEASUREMENT": "73.5 to 74 °C"
  }
]

Ask: Tell me the measured melting point of `COC1=C(OC)C(=O)C(CCCCCCCCCC(=O)O)=C(C)C1=O` , please.
Result: 59 to 60 °C

Ask: melting point for `Cc1cc(Nc2ccc(F)cc2)nc(Nc2ccc(S(=O)(=O)N(C)C3CCN(Cc4ccoc4)CC3)cc2)n1` ?
Result: 156 °C

Ask: If you can, please state the reported melting point value of `Cc1[nH]c2ccc(F)cc2c1CCCN1CCN(c2ccccc2)CC1` .
Result: 146 to 147 °C

###

RECORDED METRIC: melting point

[
  {
    "COMPOUND": "CCCOc1ccc(F)cc1C1=NC(=O)C2=NC=NC2=N1",
    "melting point": "238 °C"
  },
  {
    "COMPOUND": "CCOC(=O)C1CC(=O)c2c(C)c(O)c(C)c(C)c2O1 (stereo not given)",
    "melting point": "120 to 121 °C"
  },
  {
    "COMPOUND": "COC(=O)C1=C(C)NC(C)=C(C(=O)OC)N1c1cccc(N)c1",
    "melting point": "212 to 213 °C"
  },
  {
    "COMPOUND": "CN1C(=O)CC(c2c(-c3ccc[nH]3)[nH]c3ccc(O)cc23)C1=O (stereo not given)",
    "melting point": "148 to 154 °C"
  },
  {
    "COMPOUND": "CN(C)CC#Cc1cc(CC2CCOCC2)cc2c(=O)c(C(=O)NCc3ccc(Cl)cc3)cn(C)c12",
    "melting point": "157 to 159 °C"
  },
  {
    "COMPOUND": "N#Cc1cccc(-c2nc(C(N)=O)c3[nH]c(=O)n(-c4ccccc4)c3n2)c1",
    "melting point": "328 to 330 °C"
  },
  {
    "COMPOUND": "CCCCCCCCCCCCCCOc1ccc(C(=O)O)cc1C(C)(C)C",
    "melting point": "121 to 123 °C"
  },
  {
    "COMPOUND": "CN(C)CCN(c1ccc(N)cc1)S(C)(=O)=O",
    "melting point": "147 to 148 °C"
  }
]

Ask: Name the reported melting point value associated with the compound `COc1cc(Nc2c(C#N)cnc3cc(-c4ccc(CN5CCN(C)CC5)cc4)sc23)c(Cl)cc1Cl`
Result: 226 to 228 °C

Ask: So what does the record say about melting point for `Cc1cccc(C)c1CNc1cc(C(=O)N(C)C)nc2c(CO)c(C)[nH]c12` ?
Result: 301 °C

###

Recorded melting point values for a group of compounds are listed next.

Ask: Could you tell me which melting point is on file for `Cc1noc2ncnc(NC3Cc4ccccc4C3)c12` ?
Result: 208 °C

Ask: I'd like to know its melting point. The compound in question is `Nc1nccc(OCc2ccccc2)c1[N+](=O)[O-]`
Result: 145 to 147 °C

Ask: State the recorded melting point for this entry: `CCCCCCCCCC(=O)Nc1ccc(S(=O)(=O)Nc2nncs2)cc1`
Result: 151 to 152 °C

###

# melting point values compiled below

A selection of reference data follows.
[
  {
    "MOLECULE": "CCOC(=O)n1nc2cc(Cl)ccc2c1N",
    "MEASUREMENT": "163 to 165 °C"
  },
  {
    "MOLECULE": "CC(C)(C)c1csc(-c2cc3cc(CCC(=O)O)ccc3o2)n1",
    "MEASUREMENT": "157 to 160 °C"
  },
  {
    "MOLECULE": "CC(C)(C)OC(=O)NC(Cc1ccccc1)C(O)CNCC(O)C(Cc1ccccc1)NC(=O)OC1c2ccccc2CC1O (stereo not drawn)",
    "MEASUREMENT": "131 to 133 °C"
  },
  {
    "MOLECULE": "O=C(O)Cc1c([N+](=O)[O-])ccc2c1O[C@@H](CNCc1ccccc1)CO2",
    "MEASUREMENT": "206 °C"
  },
  {
    "MOLECULE": "N#Cc1ccc(-c2cnc(-c3ccc(C#N)cc3)cn2)cc1",
    "MEASUREMENT": "> 300 °C"
  },
  {
    "MOLECULE": "CC(=NNC(=O)c1cccc([N+](=O)[O-])c1O)c1ccccc1",
    "MEASUREMENT": "163 to 168 °C"
  }
]

Ask: Could you share which melting point value was measured for `CCc1nsc(C(=O)O)c1C(=O)OC` ?
Result: 43 to 45 °C

Ask: What value of melting point has been recorded for this entry: `CCOC(=O)c1cc([N+](=O)[O-])cn1CCC(C)C`
Result: 46 to 47 °C

Ask: What value of melting point has been recorded for this entry: CC1C=CCCC1C(O)C(N)=O (stereo not drawn)
Result: 149 to 151 °C

Ask: State the recorded melting point for this entry: `CC1(C)C(=O)Nc2cc3[nH]c(-c4cnccn4)nc3cc21`
Result: > 300 °C

Ask: # input molecule: `CNC(=O)c1ccc(-c2coc3ccc(-c4nnc(C)o4)cc23)c(Cl)c1` ; wanted: its melting point
Result: 250 to 251 °C

Ask: Can you look up the measured melting point of CC(C(=O)O)c1ccc(-c2ccc(Br)cc2)c(F)c1 (stereo not drawn) for me?
Result: 133 to 135 °C

###

In this section, each of the compounds is paired with its reported melting point.

[
  {
    "COMPOUND": "COc1ccc(S(=O)(=O)C2(C(=O)NO)CCN(C(C)(C)C)CC2)cc1",
    "RECORDED METRIC": "melting point",
    "MEASUREMENT": "40 °C"
  }
]

Ask: Given the compound `CN(c1cc(=S)ss1)C1CCCCC1` , what is its reported melting point?
Result: 107 °C

Ask: What value of melting point has been reported for the following compound? `O=C(O)[C@H](CCc1ccccc1)Oc1ccc(-c2ccco2)cc1`
Result: 140 to 142 °C

Ask: # melting point lookup, item `CCC(=O)NCCCSc1ccc(Cl)cc1`
Result: 69 to 70 °C

###

melting point reference

As a guide, the following entries are already answered.
[
  {
    "COMPOUND": "O=Cc1cccc(Sc2ccc(O)cc2)c1O",
    "RECORDED METRIC": "melting point",
    "MEASUREMENT": "97 to 98 °C"
  },
  {
    "COMPOUND": "CN(C)S(=O)(=O)c1ccc2c(c1)CCC2=O",
    "RECORDED METRIC": "melting point",
    "MEASUREMENT": "142 °C"
  },
  {
    "COMPOUND": "CC(C)c1nc(-c2c(F)c(F)cc(F)c2F)cc(-c2ccc(F)cc2)c1C=C(Br)Br",
    "RECORDED METRIC": "melting point",
    "MEASUREMENT": "77 °C"
  },
  {
    "COMPOUND": "CC(C)n1nc(-c2sc(NC(=O)c3ccc(CN(C)C)cc3)nc2-c2ccccc2)ccc1=O",
    "RECORDED METRIC": "melting point",
    "MEASUREMENT": "246 to 248 °C"
  }
]

Let us move to another entry and its melting point.
Ask: For the compound `CC(C)(CO)c1ccc(C(=O)O)cc1` , what melting point is on record?
Result: 154 to 156 °C
